The reported numbers originate from patent US20070010658A1.

Molecular target: T1, TNF alpha (UniProt P01375 77-233, limits assumed)
T1 construct: also called tumour necrosis factor; TNFSF2
T1 sequence (P01375 77-233 limits assumed): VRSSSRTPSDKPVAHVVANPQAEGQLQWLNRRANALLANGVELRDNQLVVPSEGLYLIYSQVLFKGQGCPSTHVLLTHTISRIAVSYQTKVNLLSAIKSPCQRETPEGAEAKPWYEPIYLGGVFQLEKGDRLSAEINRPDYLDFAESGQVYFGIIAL
Assay: SPR (BIAcore 3000), TNF alpha captured by immobilised antibody AHC3712, binder injected

binder	koff, s⁻¹
TN3-2-C (monomeric) (designed binder, Purified monomer from the E. coli periplasm (pBAD) for SPR) ALQTVCLKGTKVHMKCFLAFTQTKTFHEASEDCISRGGTLSTPQTGSENDALYEYLRQSVGNEAEIWLGLNKVRSRYFWVDMTGTRIAYKNWETEITAQPDPTNRENCAVLSGAANGKWFDKRCRDQLPYICQFGIV	0.022
TN3-2-B (monomeric) (designed binder, Purified monomer from the E. coli periplasm (pBAD) for SPR) ALQTVCLKGTKVHMKCFLAFTQTKTFHEASEDCISRGGTLSTPQTGSENDALYEYLRQSVGNEAEIWLGLNKVRSRYFWMDMTGTRIAYKNWETEITAQPDPTNNENCAVLSGAANGKWFGKRCRDQLPYICQFGIV	0.923
TN-2-C (trimeric) (designed binder, also called trimeric version of TN3-2-C) EPPTQKPKKIVNAKKDVVNTKMFEELKSRLDTLAQEVALLKEQQALQTVCLKGTKVHMKCFLAFTQTKTFHEASEDCISRGGTLSTPQTGSENDALYEYLRQSVGNEAEIWLGLNKVRSRYFWVDMTGTRIAYKNWETEITAQPDPTNRENCAVLSGAANGKWFDKRCRDQLPYICQFGIV	0.00353
TN3-2-D (monomeric) (designed binder, Purified monomer from the E. coli periplasm (pBAD) for SPR) ALQTVCLKGTKVHMKCFLAFTQTKTFHEASEDCISRGGTLSTPQTGSENDALYEYLRQSVGNEAEIWLGLNKVRSRYFWIDMTGTRIAYKNWETEITAQPDPNNRENCAVLSGAANGKWFGKRCRDQLPYICQFGIV	0.0185
